tested on: HCC-78; assay: relative viability (nuclei count vs DMSO), 5 days (fraction); higher = more cells survive; conditions: first compound 0.005 µM
// relative viability lookup, one value per entry
Form field (numeric): enter value without unit.

Guide cases for relative viability, answers given:
>>> numeric_result("Nc1ccn([C@@H]2O[C@H](CO)[C@@H](O)[C@@H]2O)c(=O)n1 [Cytarabine] + Cc1nc(Nc2ncc(C(=O)Nc3c(C)cccc3Cl)s2)cc(N2CCN(CCO)CC2)n1 [Dasatinib] (partner 0.075 µM)")
0.585
>>> numeric_result("COc1cc2nccc(Oc3ccc(NC(=O)Nc4cc(C)on4)c(Cl)c3)c2cc1OC [Tivozanib] + N=C(N)NC(=N)NCCc1ccccc1 [Phenformin] (partner 250 µM)")
0.619

The recorded relative viability for entry Nc1ccn([C@@H]2O[C@H](CO)[C@@H](O)[C@@H]2O)c(=O)n1 [Cytarabine] + Nc1nc2[nH]cc(CCc3ccc(C(=O)N[C@@H](CCC(=O)O)C(=O)O)cc3)c2c(=O)[nH]1 [Pemetrexed] (partner 0.2 µM) equals 0.824

====

system: RERF-LC-KJ; assay: relative viability (nuclei count vs DMSO), 5 days (fraction); higher = more cells survive; conditions: first compound 0.8 µM
// relative viability lookup, one value per entry
Form field (numeric): enter value without unit.

>>> numeric_result("Cc1cnc(-c2cnc(NCCNc3ccc(C#N)cn3)nc2-c2ccc(Cl)cc2Cl)[nH]1 + CC(=O)c1c(C)c2cnc(Nc3ccc(N4CCNCC4)cn3)nc2n(C2CCCC2)c1=O [Palbociclib] (partner 0.5 µM)")
1.01

The recorded relative viability for entry O=c1[nH]c2ccccc2n1C1CCN(CCCC(c2ccc(F)cc2)c2ccc(F)cc2)CC1 [Pimozide] + NC(=O)Nc1cc(-c2cccc(F)c2)sc1C(=O)N[C@H]1CCCNC1 [AZD7762] (partner 0.2 µM) equals 0.806

The recorded relative viability for entry O=c1[nH]c2ccccc2n1C1CCN(CCCC(c2ccc(F)cc2)c2ccc(F)cc2)CC1 [Pimozide] + CCNC(=O)c1noc(-c2cc(C(C)C)c(O)cc2O)c1-c1ccc(CN2CCOCC2)cc1 [Luminespib] (partner 0.01 µM) equals 1.08

The recorded relative viability for entry O=c1[nH]c2ccccc2n1C1CCN(CCCC(c2ccc(F)cc2)c2ccc(F)cc2)CC1 [Pimozide] + CS(=O)(=O)N1CCN(Cc2cc3nc(-c4cccc5[nH]ncc45)nc(N4CCOCC4)c3s2)CC1 [Pictilisib] (partner 1 µM) equals 0.522

====

// relative viability lookup, one value per entry
tested on: EKVX; assay: relative viability (nuclei count vs DMSO), 5 days (fraction); higher = more cells survive; conditions: first compound 0.05 µM

>>> result("COc1cc2nccc(Oc3ccc(NC(=O)Nc4cc(C)on4)c(Cl)c3)c2cc1OC [Tivozanib] + CS(=O)(=O)N1CCN(Cc2cc3nc(-c4cccc5[nH]ncc45)nc(N4CCOCC4)c3s2)CC1 [Pictilisib] (partner 1 µM)")
0.535
>>> result("Nc1ccn([C@@H]2O[C@H](CO)[C@@H](O)[C@@H]2O)c(=O)n1 [Cytarabine] + CC(=O)c1c(C)c2cnc(Nc3ccc(N4CCNCC4)cn3)nc2n(C2CCCC2)c1=O [Palbociclib] (partner 0.5 µM)")
0.296

// next item, relative viability requested
The recorded relative viability for entry COc1cc2nccc(Oc3ccc(NC(=O)Nc4cc(C)on4)c(Cl)c3)c2cc1OC [Tivozanib] + CC(=O)Nc1cccc(-n2c(=O)n(C3CC3)c(=O)c3c(Nc4ccc(I)cc4F)n(C)c(=O)c(C)c32)c1 [Trametinib] (partner 0.02 µM) equals 0.477

====

// relative viability lookup, one value per entry
tested on: PC-14; test: relative viability (nuclei count vs DMSO), 5 days (fraction); higher = more cells survive; conditions: first compound 500 µM
Form field (numeric): enter value without unit.

>>> numeric_result("O=C(O)CCCCC(CCSCc1ccccc1)SCc1ccccc1 (stereo not drawn) [CPI-613] + N=C(N)NC(=N)NCCc1ccccc1 [Phenformin] (partner 250 µM)")
0.207
>>> numeric_result("O=C(O)CCCCC(CCSCc1ccccc1)SCc1ccccc1 (stereo not drawn) [CPI-613] + NC(=O)Nc1cc(-c2cccc(F)c2)sc1C(=O)N[C@H]1CCCNC1 [AZD7762] (partner 0.2 µM)")
0.16

// next item, relative viability requested
The recorded relative viability for entry O=C(O)CCCCC(CCSCc1ccccc1)SCc1ccccc1 (stereo not drawn) [CPI-613] + Nc1nc2[nH]cc(CCc3ccc(C(=O)N[C@@H](CCC(=O)O)C(=O)O)cc3)c2c(=O)[nH]1 [Pemetrexed] (partner 0.2 µM) equals 0.0065

====

test system: EPLC-272H; assay: relative viability (nuclei count vs DMSO), 5 days (fraction); higher = more cells survive; details: first compound 0.8 µM
Threshold-based label: relative viability under 0.4 gives Met, relative viability not under 0.4 gives Not met.

Solved entries:
>>> label("O=c1[nH]c2ccccc2n1C1CCN(CCCC(c2ccc(F)cc2)c2ccc(F)cc2)CC1 [Pimozide] + C[C@]1(O)C[C@@H](c2nc(-c3ccc4ccc(-c5ccccc5)nc4c3)c3c(N)nccn32)C1 [Linsitinib] (partner 1 µM)")
"Not met"
>>> label("O=c1[nH]c2ccccc2n1C1CCN(CCCC(c2ccc(F)cc2)c2ccc(F)cc2)CC1 [Pimozide] + CCNC(=O)c1noc(-c2cc(C(C)C)c(O)cc2O)c1-c1ccc(CN2CCOCC2)cc1 [Luminespib] (partner 0.01 µM)")
"Met"
>>> label("Cc1cnc(-c2cnc(NCCNc3ccc(C#N)cn3)nc2-c2ccc(Cl)cc2Cl)[nH]1 + NC(=O)Nc1cc(-c2cccc(F)c2)sc1C(=O)N[C@H]1CCCNC1 [AZD7762] (partner 0.2 µM)")
"Met"

Prompt: A record lists Cc1cnc(-c2cnc(NCCNc3ccc(C#N)cn3)nc2-c2ccc(Cl)cc2Cl)[nH]1 + CS(=O)(=O)CCNCc1ccc(-c2ccc3ncnc(Nc4ccc(OCc5cccc(F)c5)c(Cl)c4)c3c2)o1 [Lapatinib] (partner 2 µM) . Is its relative viability below 0.4?
Response: Not met

Prompt: A record lists O=c1[nH]c2ccccc2n1C1CCN(CCCC(c2ccc(F)cc2)c2ccc(F)cc2)CC1 [Pimozide] + O=C(CCCCCCC(=O)Nc1ccccc1)NO [Vorinostat] (partner 1 µM) . Is its relative viability below 0.4?
Response: Not met

====

// relative viability lookup, one value per entry
test system: NCI-H1915; experiment: relative viability (nuclei count vs DMSO), 5 days (fraction); higher = more cells survive; details: first compound 2.53 µM
Form field (numeric): enter value without unit.

Guide cases for relative viability, answers given:
>>> numeric_result("Cc1cnc(-c2cnc(NCCNc3ccc(C#N)cn3)nc2-c2ccc(Cl)cc2Cl)[nH]1 + NC(=O)Nc1cc(-c2cccc(F)c2)sc1C(=O)N[C@H]1CCCNC1 [AZD7762] (partner 0.2 µM)")
0.644
>>> numeric_result("Cc1cnc(-c2cnc(NCCNc3ccc(C#N)cn3)nc2-c2ccc(Cl)cc2Cl)[nH]1 + CC1(C)CCC(c2ccc(Cl)cc2)=C(CN2CCN(c3ccc(C(=O)NS(=O)(=O)c4ccc(N[C@H](CCN5CCOCC5)CSc5ccccc5)c(S(=O)(=O)C(F)(F)F)c4)cc3)CC2)C1 [Navitoclax] (partner 0.5 µM)")
0.778
>>> numeric_result("O=c1[nH]c2ccccc2n1C1CCN(CCCC(c2ccc(F)cc2)c2ccc(F)cc2)CC1 [Pimozide] + C[C@@H](Oc1cc(-c2cnn(C3CCNCC3)c2)cnc1N)c1c(Cl)ccc(F)c1Cl [Crizotinib] (partner 1 µM)")
0.863
>>> numeric_result("Cc1cnc(-c2cnc(NCCNc3ccc(C#N)cn3)nc2-c2ccc(Cl)cc2Cl)[nH]1 + CS(=O)(=O)CCNCc1ccc(-c2ccc3ncnc(Nc4ccc(OCc5cccc(F)c5)c(Cl)c4)c3c2)o1 [Lapatinib] (partner 2 µM)")
1.04

// next item, relative viability requested
The recorded relative viability for entry Cc1cnc(-c2cnc(NCCNc3ccc(C#N)cn3)nc2-c2ccc(Cl)cc2Cl)[nH]1 + Nc1nc2[nH]cc(CCc3ccc(C(=O)N[C@@H](CCC(=O)O)C(=O)O)cc3)c2c(=O)[nH]1 [Pemetrexed] (partner 0.2 µM) equals 0.398

====

system: NCI-H727; test: relative viability (nuclei count vs DMSO), 5 days (fraction); higher = more cells survive; conditions: first compound 0.253 µM
// relative viability lookup, one value per entry
Form field (numeric): enter value without unit.

>>> numeric_result("Cc1cnc(-c2cnc(NCCNc3ccc(C#N)cn3)nc2-c2ccc(Cl)cc2Cl)[nH]1 + N=C(N)NC(=N)NCCc1ccccc1 [Phenformin] (partner 250 µM)")
0.478

The recorded relative viability for entry O=c1[nH]c2ccccc2n1C1CCN(CCCC(c2ccc(F)cc2)c2ccc(F)cc2)CC1 [Pimozide] + O=C(CCCCCCC(=O)Nc1ccccc1)NO [Vorinostat] (partner 1 µM) equals 1.13

The recorded relative viability for entry O=c1[nH]c2ccccc2n1C1CCN(CCCC(c2ccc(F)cc2)c2ccc(F)cc2)CC1 [Pimozide] + CS(=O)(=O)N1CCN(Cc2cc3nc(-c4cccc5[nH]ncc45)nc(N4CCOCC4)c3s2)CC1 [Pictilisib] (partner 1 µM) equals 0.357

The recorded relative viability for entry O=c1[nH]c2ccccc2n1C1CCN(CCCC(c2ccc(F)cc2)c2ccc(F)cc2)CC1 [Pimozide] + NC(=O)Nc1cc(-c2cccc(F)c2)sc1C(=O)N[C@H]1CCCNC1 [AZD7762] (partner 0.2 µM) equals 0.581
